System: Corn Earworm (CEW) (Helicoverpa zea)
Experiment: Bioassay on Corn Earworm (CEW), 128-well diet tray assay
Assay type: in vivo
Conditions: Helicoverpa zea, 168 h; 50 μg/cm2 on artificial diet, second instar larvae, five to seven days; read-out: Rating CEW (% Control (or Mortality))
Item-by-item account of mortality at 50 µg/cm2

# example entries with known answers
* CC(C)c1ccccc1N1C(=O)CS/C1=C(/C#N)C(=O)Nc1ccc(-c2ncn(-c3ccc(OC(F)(F)F)cc3)n2)cc1 | 50 to 100%
* CC(C)c1ccccc1NC(=O)NC(=O)Nc1ccc(-c2ncn(-c3ccc(OC(F)(F)F)cc3)n2)cc1 | 50 to 100%
* CC(C)c1cccc(N2C(=O)CS/C2=N\C(=O)Nc2ccc(-c3ncn(-c4ccc(OC(F)(F)F)cc4)n3)cc2)c1 | 0%

Exercise: What mortality at 50 µg/cm2 appears in the records for this molecule with Corn Earworm (CEW) (Helicoverpa zea)? COc1ccc(N/C(=N\C(=O)Nc2ccc(-c3ncn(-c4ccc(OC(F)(F)F)cc4)n3)cc2)SCOC(=O)C(C)C)cc1
Solution: 50 to 100%
